# Test system: PPARg:RXRa IVT, anti-PPARg (NR concentration 270 nM, RXRa partner concentration 90 nM)
# procedure.details: PBM binding z-score (relative to random genomic background probes); higher = stronger binding; sequences stand for … in GC…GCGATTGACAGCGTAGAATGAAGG
readout.type: PBM binding z-score
Returns: the value as a bare number; no unit string appended.

Consider the sequence CAAACTAGGTCACAAAGGTCAAAGTCCGTGCGTA and give its measured PBM binding z-score.
8.71

I'd like to know its PBM binding z-score. The sequence in question is CGTCCAAGGTCATAGGAGGTTAGTGAAGACAGAT
3.67

I would be grateful if you could share the reported PBM binding z-score for TCTTGTAGATCAACAGGAGGTTAAGAATGATCGA .
0.852

Which PBM binding z-score value is on record for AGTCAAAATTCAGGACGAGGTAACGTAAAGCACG ?
0.504

Consider the sequence shown here: CGAACTAGGTCAAGGACACTGAATCTCCGCACGC What is its recorded PBM binding z-score?
8.2

Field request: PBM binding z-score | item: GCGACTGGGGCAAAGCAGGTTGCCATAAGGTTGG
3.1
